Entries and their measured IC50 follow.
molecular target: Full-length human PRMT1 isoform 1 (Homo sapiens); construct: GST-tagged PRMT1; assay: PRMT1 biochemical assay (3H-SAM Flashplate, peptide substrate)
Sequence (Q99873 with tags, fused parts or gaps): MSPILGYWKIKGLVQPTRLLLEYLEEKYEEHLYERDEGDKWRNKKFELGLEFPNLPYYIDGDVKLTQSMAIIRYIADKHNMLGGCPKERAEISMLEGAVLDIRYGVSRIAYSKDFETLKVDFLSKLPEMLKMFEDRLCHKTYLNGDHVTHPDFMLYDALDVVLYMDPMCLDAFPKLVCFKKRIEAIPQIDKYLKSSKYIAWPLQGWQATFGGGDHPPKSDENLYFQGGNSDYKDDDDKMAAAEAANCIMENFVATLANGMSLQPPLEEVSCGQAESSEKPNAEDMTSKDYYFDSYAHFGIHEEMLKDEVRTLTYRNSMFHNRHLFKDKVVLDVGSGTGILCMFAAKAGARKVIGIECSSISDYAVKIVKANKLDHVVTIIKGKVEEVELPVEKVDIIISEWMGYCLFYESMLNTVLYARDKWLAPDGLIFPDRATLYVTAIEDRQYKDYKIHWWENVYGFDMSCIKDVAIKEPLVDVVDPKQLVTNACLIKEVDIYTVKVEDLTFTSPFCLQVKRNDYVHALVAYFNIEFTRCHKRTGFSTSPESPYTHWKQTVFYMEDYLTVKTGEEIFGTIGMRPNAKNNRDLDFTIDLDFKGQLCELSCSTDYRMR
MEASURED ATTRIBUTE: IC50

> print(dat)
                                    compound                        measurement.target  recorded.result
 1  CN(CCN)Cc1cn(C2COC2)nc1-c1ccc(F)cc1 [Compound 77]  Full-length human PRMT1 isoform 1 (Homo sapiens)   101 to 1000 nM
 2  CC(C)c1ccc(-c2c[nH]nc2CN(C)CCN)cc1 [Compound 101]  Full-length human PRMT1 isoform 1 (Homo sapiens)         < 100 nM
 3  CNCCN(C)Cc1n[nH]cc1-c1ccc(OC(C)C)c(Cl)c1 [Compound 212]  Full-length human PRMT1 isoform 1 (Homo sapiens)         < 100 nM
 4  CNCCN(C)Cc1c[nH]nc1-c1cccc([N+](=O)[O-])c1 [Compound 21]  Full-length human PRMT1 isoform 1 (Homo sapiens)         < 100 nM
 5  COCCOc1ccc(-c2n[nH]cc2CN(C)CCN)cc1 [Compound 167]  Full-length human PRMT1 isoform 1 (Homo sapiens)         < 100 nM
 6  COCCn1cnc(-c2ccc(C#N)cc2)c1CN(C)CCN [Compound 223]  Full-length human PRMT1 isoform 1 (Homo sapiens)       > 10000 nM
 7  Cc1ccc(-c2n[nH]cc2CN(C)CCN)c(F)c1 [Compound 108]  Full-length human PRMT1 isoform 1 (Homo sapiens)         < 100 nM
 8  CN(CCN)Cc1c[nH]nc1-c1ccc(C(F)(F)F)c(F)c1 [Compound 141]  Full-length human PRMT1 isoform 1 (Homo sapiens)         < 100 nM
 9  CN(CCN)Cc1c[nH]nc1-c1ccc(OC2CCOCC2)cc1 [Compound 178]  Full-length human PRMT1 isoform 1 (Homo sapiens)         < 100 nM
10  CN(CCN)Cc1c(-c2ccc(C#N)cc2)cnn1C [Compound 84]  Full-length human PRMT1 isoform 1 (Homo sapiens)       > 10000 nM
11  CCNC(=O)c1cccc(-c2n[nH]cc2CN(C)CCN)c1 [Compound 197]  Full-length human PRMT1 isoform 1 (Homo sapiens)   101 to 1000 nM
12  COc1cc(Cl)cc(-c2n[nH]cc2CN(C)CCN)c1 [Compound 127]  Full-length human PRMT1 isoform 1 (Homo sapiens)         < 100 nM
13  CNCCN(C)Cc1c[nH]nc1-c1ccc(Oc2ccccc2)c(C(=O)NC)c1 [Compound 232]  Full-length human PRMT1 isoform 1 (Homo sapiens)         < 100 nM
14  CN(CCN1CCCC1)Cc1c[nH]nc1-c1ccc(C#N)cc1 [Compound 139]  Full-length human PRMT1 isoform 1 (Homo sapiens)       > 10000 nM
15  CNCCN(C)Cc1c[nH]nc1-c1ccc(Oc2cccc(F)c2)cc1 [Compound 231]  Full-length human PRMT1 isoform 1 (Homo sapiens)         < 100 nM
16  CN(CCN)Cc1c[nH]nc1-c1ccc(Cl)cc1 [Compound 95]  Full-length human PRMT1 isoform 1 (Homo sapiens)         < 100 nM
17  CC(C)Cc1ccc(-c2c[nH]nc2CN(C)CCN)cc1 [Compound 170]  Full-length human PRMT1 isoform 1 (Homo sapiens)         < 100 nM
18  CN(CCN)Cc1n[nH]cc1-c1ccc(OC(F)F)cc1 [Compound 138]  Full-length human PRMT1 isoform 1 (Homo sapiens)         < 100 nM
19  CCCN(CCN)Cc1c[nH]nc1-c1ccc(F)cc1 [Compound 63]  Full-length human PRMT1 isoform 1 (Homo sapiens)  1010 to 3000 nM
20  COc1ccc(-c2n[nH]cc2CN(C)CCN)cc1 [Compound 153]  Full-length human PRMT1 isoform 1 (Homo sapiens)         < 100 nM
